Assay: method code SF-HPLC, from DOI: 10.1002/hlca.19880710534
Conditions: pH 7.4
QUANTITY NAME: logD
Please state the value as a number alone, without comment.

Name the recorded logD of the item C=CCC1(CC(C)O)C(=O)NC(=O)NC1=O (stereo unspecified) in your answer.
-0.01

---

Assay: method code SF-RC, from DOI: 10.1016/j.nucmedbio.2006.06.006, PMID: 16934700
Conditions: pH 7.4
QUANTITY NAME: logD
Please state the value as a number alone, without comment.

Below, each entry is followed by its recorded logD result.
| COMPOUND STRUCTURE | QUANTITY NAME | VALUE |
| --- | --- | --- |
| Nc1ccc(-c2cc3ccccc3s2)cc1 | logD | 2.87 |
| FCCOc1ccc(-c2cc3ccccc3s2)cc1 | logD | 2.83 |
| FCCNc1ccc(-c2cc3ccccc3s2)cc1 | logD | 3.46 |
| Oc1ccc(-c2cc3ccccc3s2)cc1 | logD | 2.99 |

Name the recorded logD of the item `CN(C)c1ccc(-c2cc3ccccc3s2)cc1` in your answer.
3.44

Name the recorded logD of the item `CNc1ccc(-c2cc3ccccc3s2)cc1` in your answer.
3.2
